Test: Half life in Sprague-Dawley rat at 1 mg/kg, iv and 2 mg/kg, po by LC-MS/MS analysis
Format: ADME, organism-based
Conditions: in vivo
Below: a set of entries, each annotated with reported half-life.
value-kind: half-life (h)

| compound | units-symbol | recorded-value |
| --- | --- | --- |
| CC(C)(C)OC(=O)CN(Cc1ccc(Cl)cc1)Cc1ccc([N+](=O)[O-])s1 | h | 0.4 |
| O=C(c1cccc2ccccc12)N1Cc2ccccc2CC1COCc1ccccc1 (stereo not drawn) | h | 1.9 |
| O=C(c1cccc2ccccc12)N1Cc2ccccc2CC1CNCc1ccccc1 (stereo not drawn) | h | 1.7 |

---

Overview of reported EC50 across a group of molecules:
Biological target: Nuclear receptor subfamily 1 group D member 1 (Homo sapiens, UniProt P20393)
Sequence (P20393 whole entry): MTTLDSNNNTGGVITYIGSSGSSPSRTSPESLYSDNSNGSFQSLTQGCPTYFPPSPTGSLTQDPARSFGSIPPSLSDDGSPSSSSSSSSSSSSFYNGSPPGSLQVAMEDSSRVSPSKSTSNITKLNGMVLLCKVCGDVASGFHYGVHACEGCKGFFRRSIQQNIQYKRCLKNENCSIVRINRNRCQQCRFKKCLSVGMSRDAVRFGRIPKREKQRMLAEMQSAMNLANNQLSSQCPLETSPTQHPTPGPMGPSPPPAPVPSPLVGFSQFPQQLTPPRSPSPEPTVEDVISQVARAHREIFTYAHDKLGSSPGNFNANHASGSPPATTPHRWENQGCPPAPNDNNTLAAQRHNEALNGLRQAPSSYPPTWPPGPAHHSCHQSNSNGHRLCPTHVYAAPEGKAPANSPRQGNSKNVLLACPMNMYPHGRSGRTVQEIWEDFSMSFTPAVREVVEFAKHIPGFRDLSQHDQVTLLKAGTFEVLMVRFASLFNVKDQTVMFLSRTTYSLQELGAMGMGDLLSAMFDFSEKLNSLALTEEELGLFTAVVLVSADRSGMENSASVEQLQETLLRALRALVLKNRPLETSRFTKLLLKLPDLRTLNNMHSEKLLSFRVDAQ
Assay: Agonist activity at Rev-erbalpha assessed as repression of transcription by luciferase-reporter gene assay
Type: functional
value-kind: EC50 (nM)

| molecule | units-symbol | limit-operator | recorded-value |
| --- | --- | --- | --- |
| CCOC(=O)C1Cc2ccccc2CN1S(=O)(=O)c1cccc2ccccc12 (centres undefined) | nM | = | 1700 |
| O=C(c1cccc2ccccc12)N1Cc2ccccc2CC1COc1ccc(-c2ccccc2)cc1 (centres undefined) | nM | = | 650 |
| COc1ccccc1OCC1Cc2ccccc2CN1C(=O)c1cccc2ccccc12 (centres undefined) | nM | = | 2000 |
| O=C(c1cccc2ccccc12)N1Cc2ccccc2CC1COc1ccccc1 (centres undefined) | nM | = | 840 |
| O=C(c1cccc2ccccc12)N1Cc2ccccc2CC1COCc1ccccc1 (centres undefined) | nM | = | 650 |
| CCOC(=O)C1Cc2ccccc2CN1C(=O)c1cccc2ccccc12 (centres undefined) | nM | = | 2500 |
| O=C(c1cccc2ccccc12)N1Cc2ccccc2CC1COc1ccc(F)cc1F (centres undefined) | nM | = | 710 |
| CC(C)(C)OC(=O)CN(Cc1ccc(Cl)cc1)Cc1ccc([N+](=O)[O-])s1 | nM | = | 2300 |
| O=C(c1cccc2ccccc12)N1Cc2ccccc2CC1COc1ccc(F)cc1 (centres undefined) | nM | = | 800 |
| O=C(c1cccc2ccccc12)N1Cc2ccccc2CC1COc1ccc(-n2cncn2)cc1 (centres undefined) | nM | = | 120 |
| CN(C)c1cccc(OCC2Cc3ccccc3CN2C(=O)c2cccc3ccccc23)c1 (centres undefined) | nM | = | 780 |
| COc1ccc(OCC2Cc3ccccc3CN2C(=O)c2cccc3ccccc23)cc1OC (centres undefined) | nM | = | 330 |
| CCOC(=O)C1Cc2ccccc2CN1C(=O)c1cccc2c1CCCC2 (centres undefined) | nM | = | 2100 |
| CCOc1ccc(OCC2Cc3ccccc3CN2C(=O)c2cccc3ccccc23)cc1 (centres undefined) | nM | = | 97 |
| O=C(c1cccc2ccccc12)N1Cc2ccccc2CC1COc1cccc2ccccc12 (centres undefined) | nM | = | 1200 |
| CC(C)(C)Oc1ccc(OCC2Cc3ccccc3CN2C(=O)c2cccc3ccccc23)cc1 (centres undefined) | nM | = | 140 |
| O=C(NCc1ccccc1)C1Cc2ccccc2CN1C(=O)c1cccc2ccccc12 (centres undefined) | nM | > | 3000 |
| COc1cccc(OCC2Cc3ccccc3CN2C(=O)c2cccc3ccccc23)c1 (centres undefined) | nM | = | 620 |
| O=C(c1cccc2ccccc12)N1Cc2ccccc2CC1COc1ccc(OC(F)(F)F)cc1 (centres undefined) | nM | = | 600 |
| COc1ccc(OCC2Cc3ccccc3CN2C(=O)c2cccc3ccccc23)cc1 (centres undefined) | nM | = | 120 |
| CCOC(=O)C1Cc2ccccc2CN1C(=O)c1cccc2oc(C)cc12 (centres undefined) | nM | > | 3000 |
| CCOC(=O)C1Cc2ccccc2CN1S(=O)(=O)c1ccc(C)cc1 (centres undefined) | nM | = | 1100 |
| CCCOc1ccc(OCC2Cc3ccccc3CN2C(=O)c2cccc3ccccc23)cc1 (centres undefined) | nM | = | 77 |
| O=C(c1cccc2ccccc12)N1Cc2ccccc2CC1CNCc1ccccc1 (centres undefined) | nM | > | 3000 |

---

Molecular target: Nuclear receptor subfamily 1 group D member 1 (Homo sapiens) (UniProt P20393)
Sequence (whole entry): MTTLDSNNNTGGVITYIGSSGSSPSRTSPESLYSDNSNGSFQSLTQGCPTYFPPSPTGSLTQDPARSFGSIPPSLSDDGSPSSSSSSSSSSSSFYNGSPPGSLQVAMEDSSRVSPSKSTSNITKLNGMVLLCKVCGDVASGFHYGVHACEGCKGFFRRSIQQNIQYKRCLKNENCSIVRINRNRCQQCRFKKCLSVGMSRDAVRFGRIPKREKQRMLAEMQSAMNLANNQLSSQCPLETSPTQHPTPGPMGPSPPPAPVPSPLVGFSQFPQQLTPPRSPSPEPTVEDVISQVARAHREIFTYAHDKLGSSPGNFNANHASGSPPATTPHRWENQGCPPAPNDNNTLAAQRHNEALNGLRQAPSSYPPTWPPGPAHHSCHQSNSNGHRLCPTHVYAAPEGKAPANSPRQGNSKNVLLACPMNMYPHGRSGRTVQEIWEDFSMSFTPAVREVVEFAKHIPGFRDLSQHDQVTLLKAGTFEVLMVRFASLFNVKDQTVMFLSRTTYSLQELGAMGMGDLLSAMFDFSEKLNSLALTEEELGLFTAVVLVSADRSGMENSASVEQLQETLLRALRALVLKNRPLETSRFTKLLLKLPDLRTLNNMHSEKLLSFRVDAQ
Assay: Agonist activity at Rev-erbalpha assessed as repression of transcription at 10 uM by luciferase-reporter gene assay relative to control
Assay type: functional

| compound | fold change (FC) |
| --- | --- |
| CCOC(=O)C1Cc2ccccc2CN1Cc1ccc([N+](=O)[O-])o1 (configuration not stated) | 0.9 |
| CCOC(=O)C1Cc2ccccc2CN1S(=O)(=O)c1ccc(C)cc1 (configuration not stated) | 0.51 |
| CCOC(=O)C1Cc2ccccc2CN1C(=O)c1ccno1 (configuration not stated) | 1 |
| CCOC(=O)C1Cc2ccccc2CN1C(=O)c1cccc2c1CCCC2 (configuration not stated) | 0.53 |
| CCOC(=O)C1Cc2ccccc2CN1C(=O)c1cccc2cccnc12 (configuration not stated) | 0.64 |
| O=C(c1cccc2ccccc12)N1Cc2ccccc2CC1COc1ccc(F)cc1F (configuration not stated) | 0.45 |
| CCOC(=O)C1Cc2ccccc2CN1C(=O)C1CCCc2ccccc21 (configuration not stated) | 0.73 |

---

Molecular target: Nuclear receptor subfamily 1 group D member 1 (Homo sapiens) (UniProt P20393)
Sequence (whole entry): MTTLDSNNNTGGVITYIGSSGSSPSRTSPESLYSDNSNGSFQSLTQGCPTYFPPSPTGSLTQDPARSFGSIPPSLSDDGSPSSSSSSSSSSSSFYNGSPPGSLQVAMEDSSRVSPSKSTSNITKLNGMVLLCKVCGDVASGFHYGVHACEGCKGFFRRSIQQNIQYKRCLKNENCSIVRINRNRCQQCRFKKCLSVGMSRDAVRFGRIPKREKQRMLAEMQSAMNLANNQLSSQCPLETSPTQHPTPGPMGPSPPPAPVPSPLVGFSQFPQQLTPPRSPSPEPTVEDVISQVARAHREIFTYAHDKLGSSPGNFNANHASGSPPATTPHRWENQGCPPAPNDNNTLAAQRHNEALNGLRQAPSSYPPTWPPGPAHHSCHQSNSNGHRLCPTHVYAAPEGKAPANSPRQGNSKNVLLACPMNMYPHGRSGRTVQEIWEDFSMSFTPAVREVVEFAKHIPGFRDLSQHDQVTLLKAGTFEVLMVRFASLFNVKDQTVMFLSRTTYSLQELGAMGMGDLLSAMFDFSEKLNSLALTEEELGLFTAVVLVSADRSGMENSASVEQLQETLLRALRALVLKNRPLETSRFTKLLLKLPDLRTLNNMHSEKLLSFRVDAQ
Assay: Agonist activity at Rev-erbalpha assessed as repression of transcription at 10 uM by luciferase-reporter gene assay relative to control
Assay type: functional
value-kind: fold change (FC)

| compound | recorded-value |
| --- | --- |
| CCOC(=O)C1Cc2ccccc2CN1C(=O)Nc1cccc2ccccc12 (configuration not stated) | 1 |
| CN(C)c1cccc(OCC2Cc3ccccc3CN2C(=O)c2cccc3ccccc23)c1 (configuration not stated) | 0.3 |
| CCOC(=O)C1Cc2ccccc2CN1C(=O)c1cccc(Br)c1 (configuration not stated) | 0.97 |
| CCOC(=O)C1Cc2ccccc2CN1Cc1nc2ccccc2s1 (configuration not stated) | 0.95 |
| CCOC(=O)C1Cc2ccccc2CN1C(=O)c1ccccc1 (configuration not stated) | 0.97 |
| O=C(c1cccc2ccccc12)N1Cc2ccccc2CC1COc1ccc(-c2ccccc2)cc1 (configuration not stated) | 0.4 |
| O=C(NCC1Cc2ccccc2CN1C(=O)c1cccc2ccccc12)OCc1ccccc1 (configuration not stated) | 0.53 |
| O=C(c1cccc2ccccc12)N1Cc2ccccc2CC1COc1ccc(OC(F)(F)F)cc1 (configuration not stated) | 0.4 |
| COc1ccccc1OCC1Cc2ccccc2CN1C(=O)c1cccc2ccccc12 (configuration not stated) | 0.4 |
| CCOC(=O)C1Cc2ccccc2CN1C(=O)Oc1cccc(C(F)(F)F)c1 (configuration not stated) | 1 |
| CCOC(=O)C1Cc2ccccc2CN1C(=O)c1cccc2ccccc12 (configuration not stated) | 0.41 |
| COc1ccc(OCC2Cc3ccccc3CN2C(=O)c2cccc3ccccc23)cc1 (configuration not stated) | 0.38 |
| CCOC(=O)C1Cc2ccccc2CN1S(=O)(=O)c1cccc(Br)c1 (configuration not stated) | 0.75 |
| COc1ccc(OCC2Cc3ccccc3CN2C(=O)c2cccc3ccccc23)cc1OC (configuration not stated) | 0.55 |
| O=C(c1cccc2ccccc12)N1Cc2ccccc2CC1COc1cccc2ccccc12 (configuration not stated) | 0.41 |
| CCCOc1ccc(OCC2Cc3ccccc3CN2C(=O)c2cccc3ccccc23)cc1 (configuration not stated) | 0.45 |
| O=C(c1cccc2ccccc12)N1Cc2ccccc2CC1CNS(=O)(=O)c1ccccc1 (configuration not stated) | 0.4 |
| O=C(c1cccc2ccccc12)N1Cc2ccccc2CC1CO (configuration not stated) | 0.71 |
| CCOC(=O)C1Cc2ccccc2CN1C(=O)Nc1ccccc1 (configuration not stated) | 1.5 |
| O=C(NCc1ccccc1)C1Cc2ccccc2CN1C(=O)c1cccc2ccccc12 (configuration not stated) | 0.55 |
| CCOC(=O)C1Cc2ccccc2CN1Cc1ccc(C(=O)O)s1 (configuration not stated) | 1 |
| CCOC(=O)C1Cc2ccccc2CN1Cc1ccc([N+](=O)[O-])s1 (configuration not stated) | 0.78 |

These data points were gathered from ChEMBL document CHEMBL2029304.
